experiment: label from the status in PepcDB records

| chain | protein production |
| --- | --- |
| MIKEWATVVSWQNGQAVVSCDVKASCSSCASRAGCGSRVLNKLGPQTTHTIVVPSAEPLAPGQKVELGIAEKSLLGSALLVYMSPLAGLFLCAALFQMLFGSDLAALSGAVLGGVGGFLVARGYSRKLAERDAWQPVILNVALPPDLVRVETTSIETRQ | failed |
| MVELEKEKIVWIAIILLIIFLVWETLKDLIAPIVFGMAASYIAYPFHIKLSKKVGKRNSVLILSGILSIFSLIFFVGVTLWITDTLKNLYNYLDAFFSWLSTLNVPGFLSSLFDALATSFPEKLRSILLQYTLSLPKLALQLIVFLAVFYATLLNADFLAKEIYELLPLTNRELGEKMIEKVKDTVDAILKTWLFFSVVKGIFLALGFYLFKISNVAGSIAAGVLCIVLELLPVVGGWIMWLAGAIILLRRSMLLAIIFAIYGIITISPIPDYFLKPKFAKERAKVSSVVALVGIFGGWIAFGAVGIILGPIAIGLLLALIDAWREIGTKQPSKAHRSQDA | failed |

---

assay: label from the status in PepcDB records
measurement_kind: protein production

A selection of reference data follows.
| chain | protein production |
| --- | --- |
| MINSGTLITKIEELQSTLAKMDIALGTVDEAIVWTDGTGQIQWCNTAFDHLMGKLHILILGKNLVELLPLHRNSQPLEVSHHPFTIIVATQQKFTDHYEFNQNGKWLHLEIMTSPLMNAQGAVLVIRDISDRHLQEQTLQQLNENLEKRVLERTQAVSLIN | failed |
| MSKRDYYQVLGVPRTASEDDLKKAYRRCAMKYHPDRNPGDAAAEAAFKECKEAYEVLADTKKRKLYDTHGHAAFEHGVGSGNTPDMNDIFGDIFGNIFGGARASRRGADVGYMVELDLEEAVAGVERQIQIPTLVECTHCHGSGSEDGHVETCGTCRGSGQVRIQRGIFAMQQTCPHCGGRGVIIRNPCKVCNGAGRVEDHKTLSVKIPAGVDNGDRIRLSGEGEQGPDGVPPGDLYVEVRVREHPIFQRDGDDLHCEVPVRISQAALGDIVRVATLDGEAEIRIPAETQSGKLFRLRGKGVRSVRSRTEGDLYCRIVVETPVNLTAEQRKLLEQFEMTFAGEDARKHSPKSATFLDGVKSFWDRMTS | failed |
| MKISVIISNYNYARYLSRAINSVLAQTHSDIEIVIVDDGSTDNSRDVITQLQEQAPDKIKPIFQANQGQGGAFNAGFAAATGEVVAFLDADDVWKPHKLQRIVEVFQTSDVVGVMHHLDIIDGNDKTIDQASTQGPKLSEDLASVILQTGNAWCFPPTSGLAYRREVLEKVFPIDPVKWRIWADGCIIYCTAFLGKIKTLQENLAYYRIHGANNHMSAASATSEQEAKSQAGIEMTNQYINDFLVRIGYGARVDLSRNLQYRRTKYYQRSQWDLREVWGISRLILGWPFYSGQERAYYLARFLFKSGKFLLRSDVHTESTTI | failed |
| MIMVSGCQQQKEETPFYYGTWDEGRAPGPTDGVKSATVTFTEDEVVETEVMEGRGEVQLPFMAYKVISQSTDGSIEIQYLGPYYPLKSTLKRGENGTLIWEQNGQRKTMTRIESKTGREEKDEKSKSLEHHHHHH | not failed |
| MRYVVGHKNPDTDSIASAIVLAYFLDCYPARLGDINPETEFVLRKFGVMEPELIESAKGKEIILVDHSEKSQSFDDLEEGKLIAIIDHHKVGLTTTEPILYYAKPVGSTATVIAELYFKDAIDLIGGKKKELKPDLAGLLLSAIISDTVLFKSPTTTDLDKEMAKKLAEIAGISNIEEFGMEILKAKSVVGKLKPEEIINMDFKNFDFNGKKVGIGQVEVIDVSEVESKKEDIYKLLEEKLKNEGYDLIVFLITDIMKEGSEALVVGNKEMFEKAFNVKVEGNSVFLEGVMSRKKQVVPPLERAYNG | not failed |
| MAEQDLTMIVGTYTSGDSKGLYSFRFNEENGTATALSEAEVENPSYLVPSADGKFIYAVSEFSNEQAAANAFAFNKEEGTFRLLNTQKTGGEDPCYIITNGSNVVTANYSGGSISVFPIDKDGSLLPASEVVKFKGSGADKERQEKPHLHCVRITPDGKYLFADDLGTDQIHKFIVNPNAKADNEDVFLKEGSPASYKVEAGSGPRHLTFAPNGSYAYLINELSGTVIAFEYNDGELKEIQTIAADTVGAKGSGDIHISPDGKFLYASNRLKADGLAIFSIHPENGMLTKVGYQLTGIHPRNFIITPNGKYLLVACRDSNVIQVYERDTDTGLLTDIRKDIKVDKPVCIKFVPLEHHHHHH | not failed |
| MKRKVQVKNITIGEGRPKICVPIIGKNKKDIIKEAKELKDACLDIIEWRVDFFENVENIKEVKEVLYELRSYIHDIPLLFTFRSVVEGGEKLISRDYYTTLNKEISNTGLVDLIDVELFMGDEVIDEVVNFAHKKEVKVIISNHDFNKTPKKEEIVSRLCRMQELGADLPKIAVMPQNEKDVLVLLEATNEMFKIYADRPIITMSMSGMGVISRLCGEIFGSALTFGAAKSVSAPGQISFKELNSVLNLLHKSIN | not failed |
| MFVAFNFNKIESITTEKEFKIILNDQIALGKIPDFSKIKITIKVNKDDLKYLDLNKIILFIEASSIKIPGSYKLPIKIKNLNSIHIAEYKLSKTNVLLNLDNKVSKLVKIEPKFKLEHHHHHH | failed |
| MFHKALWMRQWKQGKYIILLFWLTSLYQLPYKYYQEAQTQLKLSKMKFGDYTYYYSYYFQTSDGAVFFQGATLIALACLLIGWERNNQSNDFLFSMPFKRKDIFLTKWWLGVLNIITVQIICLISMYGIKNMSFHNEYQTFAPFYSYFLYATVVLIAIYTFALFIGTITGHIFSQSILTIILLFLPYGFGLLISGFIYSHTQWSVDAMGEIEYHTHEYLQHIGIISPLEYFSITYDYHPIETFDDYGNKLPSVSQDNPTERISVPSPWTLLTPFSYIITFLSIATFLYTRTPNEQSGKILLFPNLQKWFIICTVLCFGLLGGRILGGRDALLSYYVGFFLFATISYFIFTRLLKLKFAFAGK | failed |

Data point: MNLLTVSTDLISIFLFTTLFLFFARKVAKKVGLVDKPNFRKRHQGLIPLVGGISVYAGICFTFGIVDYYIPHASLYLACAGVLVFIGALDDRFDISVKIRATIQAAVGIVMMVFGKLYLSSLGYIFGSWEMVLGPFGYFLTLFAVWAAINAFNMVDGIDGLLGGLSCVSFAAIGMILWFDGQTSLAIWCFAMIAAILPYIMLNLGILGRRYKVFMGDAGSTLIGFTVIWILLETTQGKTHPISPVTALWIIAIPLMDMVAIMYRRLRKGMSPFSPDRQHIHHLIMRAGFTSRQAFVLITLAAALLASIGVLAEYSHFVPEWVMLVLFLLAFFLYGYCIKRAWKVARFIKRVKRRLRRNRGGSPNLTK ; protein production = failed

src = a protein production outcome set (Wang et al. 2014)
